experiment: growth inhibitors of E. coli tolC mutant, primary screen, strain BW25113 ΔtolC::kan, 384-well (AID 573); conditions: OD615, screened at 10 µM (by protocol);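 further: growth measured after 20 h incubation at 37 °C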
Screen size: about 65,000 compounds; about 1,400 (2.2%) were called active.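 How the source made its calls: active means growth inhibition at or above a cutoff equal to the mean over every tested compound plus 3 SD (cut at about 60% in these data); inactive means the rest.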 What follows is part of a selection rich in actives, with near analogues and random picks from the rest.
Outcome field: choose from active, inactive

- c1ccc(Nc2nc(-c3ccncc3)cs2)nc1: inactive
- Cc1nc2c(c(=O)n1Cc1ccco1)c1nc3ccccc3nc1n2Cc1ccccc1: inactive

How was COc1ccc2c(c1)OC(O)(C(F)(F)C(F)F)CC2=O (stereo not given) classified in this test?
active

Would you mind telling me which call this test gave COC(=O)NC1(C(F)(F)F)NC(=O)N(C2CCCCC2)C1=O (stereo not given) ?
inactive

Which outcome did this test record for the molecule CCOC(=O)c1cc(-c2ccc(Cl)s2)nc2c1c(C)nn2C ?
inactive

Fill in: this test's call for COc1ccc(OC)c(S(=O)(=O)N(C)CC(=O)N2CCN(c3ccccc3)CC2)c1 is ___
inactive

Dear colleague, could you share the recorded outcome for NC(=O)C1CC=CCC1C(=O)OCC(Cl)=C(Cl)Cl (stereo not given) when you have a moment?
inactive

I would be grateful if you could indicate the recorded call for Clc1ccc(Nc2nc(-c3cccs3)cs2)nc1 .
active

Would you mind telling me which call this test gave O=C(NCc1ccco1)c1cc2sccc2n1Cc1ccc(F)cc1 ?
inactive

Identify the outcome logged in this assay for the molecule shown: CC(C(=O)N1CCOCC1)N1c2cccc3cccc(c23)S1(=O)=O (stereo not given)
inactive

Could you please tell me the result logged for O=C(c1ccco1)N1CCN(C(=O)c2ccc(COc3ccc(F)cc3)o2)CC1 in this assay?
inactive

Which outcome was entered for the molecule COC(=O)c1ccc(NC(=O)CSc2nnc(CNc3ccc(OC)cc3)n2C)cc1 in this test?
inactive

// return assay outcome for C=CCn1cnc2scc(-c3ccccc3)c2c1=O
inactive

What outcome does the record of this test show for COc1c(F)c(F)c(-c2csc(N)n2)c(F)c1F ?
inactive

Each molecule tested received a call. Report the one for CCCC(=O)NC(C)C(c1cccs1)N1CCN(c2ccccc2)CC1 (stereo not given) .
inactive
